Provenance of the data: patent US20240158370A1

assay-system: CK1α (Homo sapiens, UniProt P48729+Q96SW2)
Construct: CSNK1A1-HiBit KI HEK293(LgBit) Cells; host or cells: HEK293(LgBit) knock-in cells
Sequence (P48729 whole entry): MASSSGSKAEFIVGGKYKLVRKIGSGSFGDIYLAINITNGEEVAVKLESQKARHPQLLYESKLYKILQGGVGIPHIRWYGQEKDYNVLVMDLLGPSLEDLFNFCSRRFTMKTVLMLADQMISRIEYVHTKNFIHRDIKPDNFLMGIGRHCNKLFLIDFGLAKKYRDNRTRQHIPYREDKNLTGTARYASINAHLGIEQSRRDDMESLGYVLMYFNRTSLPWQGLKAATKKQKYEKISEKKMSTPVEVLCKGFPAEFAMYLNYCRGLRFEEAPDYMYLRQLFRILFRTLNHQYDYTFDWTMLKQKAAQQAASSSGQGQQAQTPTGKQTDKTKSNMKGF
Sequence (Q96SW2 whole entry): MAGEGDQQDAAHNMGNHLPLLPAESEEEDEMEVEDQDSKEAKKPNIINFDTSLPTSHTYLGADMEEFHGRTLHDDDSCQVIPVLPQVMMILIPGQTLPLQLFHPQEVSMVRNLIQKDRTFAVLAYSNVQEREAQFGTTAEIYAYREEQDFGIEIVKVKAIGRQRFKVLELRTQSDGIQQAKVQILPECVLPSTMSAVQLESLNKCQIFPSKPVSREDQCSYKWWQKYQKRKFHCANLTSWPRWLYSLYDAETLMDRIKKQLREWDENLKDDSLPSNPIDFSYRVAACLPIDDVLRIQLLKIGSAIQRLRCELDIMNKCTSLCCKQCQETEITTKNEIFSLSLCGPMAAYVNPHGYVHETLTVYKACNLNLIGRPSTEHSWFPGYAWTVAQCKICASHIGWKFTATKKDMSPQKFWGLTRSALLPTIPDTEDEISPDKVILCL
Sequence (Q16531 whole entry partner): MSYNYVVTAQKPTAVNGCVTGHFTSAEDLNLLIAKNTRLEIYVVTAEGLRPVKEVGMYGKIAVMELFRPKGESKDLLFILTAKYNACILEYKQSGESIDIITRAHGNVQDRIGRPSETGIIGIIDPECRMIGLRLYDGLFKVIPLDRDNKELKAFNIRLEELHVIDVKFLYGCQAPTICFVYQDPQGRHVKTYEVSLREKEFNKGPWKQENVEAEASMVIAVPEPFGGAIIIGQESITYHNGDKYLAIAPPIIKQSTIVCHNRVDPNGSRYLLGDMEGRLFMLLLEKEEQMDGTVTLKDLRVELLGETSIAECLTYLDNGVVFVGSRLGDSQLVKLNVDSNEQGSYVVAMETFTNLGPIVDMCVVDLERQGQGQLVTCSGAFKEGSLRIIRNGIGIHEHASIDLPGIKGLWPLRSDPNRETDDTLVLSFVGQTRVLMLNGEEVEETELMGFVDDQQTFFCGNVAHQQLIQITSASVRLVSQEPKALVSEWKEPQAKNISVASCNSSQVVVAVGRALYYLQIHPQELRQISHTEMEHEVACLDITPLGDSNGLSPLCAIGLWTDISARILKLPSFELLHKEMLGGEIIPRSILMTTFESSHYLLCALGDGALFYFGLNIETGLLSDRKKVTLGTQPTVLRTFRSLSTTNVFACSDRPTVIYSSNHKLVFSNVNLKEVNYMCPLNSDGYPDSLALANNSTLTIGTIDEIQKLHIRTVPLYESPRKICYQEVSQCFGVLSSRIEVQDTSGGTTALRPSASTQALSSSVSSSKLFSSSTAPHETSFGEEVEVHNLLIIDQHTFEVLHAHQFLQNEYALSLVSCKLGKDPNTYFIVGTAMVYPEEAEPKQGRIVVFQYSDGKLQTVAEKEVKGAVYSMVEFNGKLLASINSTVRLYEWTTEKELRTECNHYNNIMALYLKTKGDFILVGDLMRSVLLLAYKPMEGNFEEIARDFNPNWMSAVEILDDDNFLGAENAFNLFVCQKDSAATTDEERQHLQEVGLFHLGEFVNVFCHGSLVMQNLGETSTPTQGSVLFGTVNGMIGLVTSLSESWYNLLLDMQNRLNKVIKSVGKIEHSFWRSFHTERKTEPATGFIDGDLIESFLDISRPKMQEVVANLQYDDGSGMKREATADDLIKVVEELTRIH
assay-protocol: HiBiT degradation assay, CK1α, Procedure A
Format: cell-based
test-settings: six hours
measure: CK1α Ymin

CCc1nc(-c2ccc3c(c2)CN(C2CCC(=O)NC2=O)C3=O)c(-c2ccccc2)o1 (stereo not shown) [Example 720]; C (C = 0-10% remaining)
Cn1cc(-c2ccc3c(c2)CN(C2CCC(=O)NC2=O)C3=O)nc1-c1cccc(OCc2ccccc2)c1 (stereo not shown) [Example 681]; C (C = 0-10% remaining)
Cn1cc(-c2ccc3c(c2)CN(C2CCC(=O)NC2=O)C3=O)nc1-c1ccc(C(F)F)cc1 (stereo not shown) [Example 587]; C (C = 0-10% remaining)
